- measurementDescription: Pharmacokinetic parameter Cmax determined after intravenous administration of 25 mg/kg to monkey
- Assay type: ADME, organism-based
- Set-up: dose 25 mg/kg, route intravenous
- testContext: simiiformes, in vivo
reportedEndpoint: Cmax (ng/mL)
One number for each entry, in ng/mL.

Ask: Fill blank: measured Cmax of the molecule CCC1(N(CCO)C(=O)c2ccccc2CCC(O)Cc2ccc(C)cc2C(=O)N(CCO)C(C)(C)c2ccccc2)CCCC1 (stereo unspecified) is ____.
Result: 18300

====

- measurementDescription: Pharmacokinetic parameter Cmax determined after peroral administration of 50 mg/kg to rat
- Type: ADME, organism-based
- Design: dose 50 mg/kg, route oral
- testContext: in vivo, po
reportedEndpoint: Cmax
Entry format: amount then unit.

Ask: Fill blank: measured Cmax of the compound CCC1(N(CCO)C(=O)c2ccccc2CCC(O)Cc2ccc(C)cc2C(=O)N(CCO)C(C)(C)c2ccccc2)CCCC1 (stereo unspecified) is ____.
Result: 2780 ng/mL

====

- measurementDescription: Pharmacokinetic parameter Cmax determined after oral administration of 30 mg/kg abd antacid (CaCO3 dosed orally 10 min prior to and 60 min postdosing) to dog
- testContext: in vivo
reportedEndpoint: Cmax
Entry format: amount then unit.

Ask: Fill blank: measured Cmax of the compound CCC1(N(CCO)C(=O)c2ccccc2CCC(O)Cc2ccc(C)cc2C(=O)N(CCO)C(C)(C)c2ccccc2)CCCC1 (stereo unspecified) is ____.
Result: 3260 ng/mL

====

Would you mind telling me the reported pKi of each entry?
- experimentalTarget: Human immunodeficiency virus type 1 protease (Human immunodeficiency virus 1, UniProt Q72874)
- measurementDescription: Compound was tested for binding affinity against HIV protease
Numbers only, as −log10 of the molar value.

compound | pKi
CCC1(N(CCO)C(=O)c2ccccc2CCC(O)Cc2ccc(C)cc2C(=O)N(CC2COC(C)(C)OC2)C(C)(C)c2ccccc2)CCCC1 (configuration not stated) | 8.40

Please examine the following record next.
Ask: Fill blank: measured pKi of the compound "CC(C)(C)NC(=O)[C@@H]1C[C@@H]2CCCC[C@@H]2CN1C[C@@H](O)[C@H](Cc1ccccc1)NC(=O)[C@H](CC(N)=O)NC(=O)c1cnc2ccccc2c1" is ____.
Result: 9.05

====

- experimentalTarget: Human immunodeficiency virus type 1 protease (Human immunodeficiency virus 1, UniProt Q72874)
- measurementDescription: Binding affinity against HIV-1 protease
Would you mind telling me the reported pKi of each entry?
One number for each entry, as −log10 of the molar value.

compound | reportedEndpoint | numericResult
CCCC(CC)(CC)N(CCO)C(=O)c1ccccc1CC(O)CCc1ccccc1C(=O)N(CCO)C(C)(C)C (stereo unspecified) | pKi | 6.96

Please go through the list and note pKi for each compound.
1. Cc1ccc(CC(O)CCc2ccccc2C(=O)N(CCO)C(C)(C)C)c(C(=O)N(CCO)C(C)(C)c2ccccc2)c1 (stereo unspecified)
2. CCC1(N(CCO)C(=O)c2ccccc2CCC(O)Cc2ccc(C)cc2C(=O)N(CCO)C(C)(C)c2ccc(OCCN3CCOCC3)cc2)CCCC1 (stereo unspecified)
3. CC(C)(C)NC(=O)c1ccccc1SCC(O)Cc1ccccc1C(=O)N(CCO)C(C)(C)C (stereo unspecified)
4. CCC1(N(CCO)C(=O)c2ccccc2CCC(O)Cc2ccc(C)cc2C(=O)N(CCO)C2(c3ccccc3)CCCC2)CCCC1 (stereo unspecified)
5. CC(C)(C)N(CCO)C(=O)c1ccccc1CCC(O)Cc1ccccc1C(=O)N(CCO)C(C)(C)c1ccccc1 (stereo unspecified)
6. CCN(C(=O)c1ccccc1CC(O)CCc1ccccc1C(=O)N(CCO)C1(CC)CCCC1)C(C)(C)c1ccccc1 (stereo unspecified)
7. CCC1(N(CCO)C(=O)c2ccccc2CCC(O)Cc2ccc(C)cc2C(=O)N(CCO)C(C)(C)C2CCOCC2)CCCC1 (stereo unspecified)
8. CCC1(N(CCO)C(=O)c2ccccc2CCC(O)Cc2ccc(C)cc2C(=O)N(CCO)C(C)(C)c2ccc(O)cc2)CCCC1 (stereo unspecified)

Result:
[7.20, 8.05, 4.47, 9.40, 7.05, 7.29, 7.46, 8.22]

Please go through the list and note pKi for each compound.
1. CCC1(N(CCO)C(=O)c2ccccc2CCC(O)Cc2ccc(C)cc2C(=O)N(CCO)C(C)(C)c2ccccc2)CCCC1 (stereo unspecified)
2. CCCC(CC)(CC)N(CCO)C(=O)c1cc(C)ccc1CC(O)CCc1ccccc1C(=O)N(CCO)C1(CC)CCCC1 (stereo unspecified)
3. Cc1ccc(CC(O)CCc2ccccc2C(=O)N(CCO)C(C)(C)c2ccccc2)c(C(=O)N(CCO)C(C)(C)c2ccccc2)c1 (stereo unspecified)
4. Cc1ccc(CCC(O)Cc2ccccc2C(=O)N(CCO)C(C)(C)c2ccccc2)c(C(=O)N(CCO)C(C)(C)C)c1 (stereo unspecified)
5. CC(C)(C)N(CCO)C(=O)c1ccccc1CCC(O)Cc1ccccc1C(=O)N(CCO)C(C)(C)Cc1ccccc1 (stereo unspecified)
6. CCC1(N(CCO)C(=O)c2ccccc2CCC(O)Cc2ccc(Cl)cc2C(=O)N(CCO)C(C)(C)c2ccccc2)CCCC1 (stereo unspecified)

Result:
[8.10, 8.22, 7.74, 6.82, 5.89, 8.70]

Ask: Fill blank: measured pKi of the compound CCC1(N(CCO)C(=O)c2ccccc2CCC(O)Cc2ccc(C)cc2C(=O)N(CCC(O)CO)C(C)(C)c2ccccc2)CCCC1 (stereo unspecified) is ____.
Result: 8.00
